These measurements were taken from patent US20140205597A1.

# testedSystem: T1, monoclonal antibody 21-4-3
# T1 construct: mouse IgG1 heavy chain, kappa light chain; also called mAb21-4-3; produced by hybridoma ABH0015 (LMBP-9680-CB)
# procedureText: Biacore, captured 21-4-3
Catalogue of binding vs Reference Sequence (=100%) readings, one per entry.
// note: answer is a bare numeric in %

{"columns": ["binder", "binding vs Reference Sequence (=100%)"],
 "data": [
  ["SEQ ID NO 80 (VHH, T110Q, S112G, S113G) VHH: EVQLVESGGGLVQPGGSLRLSCAASRSIGRLDRMGWYRHRPGEPRELVATITGGSSINYGDSVKGRFTISIDNSKNTVYLQMNSLRPEDTAVYYCNFNKYVTSRDTWGQGTLVQVGG", 51],
  ["SEQ ID NO 43 (bispecific antibody, Nanobody construct; C-terminal: A) DVQLVESGGGLVQPGGSLRLSCAASGFILDYYAIGWFRQAPGKEREGVLCIDASDDITYYADSVKGRFTISRDNSKNTVYLQMNSLRPEDTAVYYCATPIGLSSSCLLEYDYDYWGQGTLVTVSSGGGGSGGGSEVQLLESGGGLVQPGGSLRLSCAASGFTFRSFGMSWVRQAPGKGPEWVSSISGSGSDTLYADSVKGRFTISRDNSKNTLYLQMNSLRPEDTAVYYCTIGGSLSRSSQGTLVTVSSA", 3]
]}

Now consider the entry below.
Request the reported binding vs Reference Sequence (=100%) associated with SEQ ID NO 67 (VHH, R83K) VHH: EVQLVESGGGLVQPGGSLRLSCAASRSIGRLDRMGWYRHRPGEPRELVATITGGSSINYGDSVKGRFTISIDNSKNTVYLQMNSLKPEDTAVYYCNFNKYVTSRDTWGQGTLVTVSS
101
